This collection of values is drawn from ChEMBL document CHEMBL1158140.

tested on: WiDr; test: Cytotoxicity against human WiDr cells after 48 hrs by SRB assay; format: functional
// NB: equality with 40 µM counts as class 0; only GI50 strictly below is class 1

INSERT INTO measurements (compound, assignedlabel) VALUES
  ('CC(C)c1cc2c(c(O)c1O)[C@@]13CCCC(C)(C)[C@@H]1C[C@@H]2OC3=O', 'class 1'),
  ('CC(C)C1=C[C@]2(O)CC[C@H]3C(C)(C)CCC[C@]3(C)C2=CC1=O', 'class 0'),
  ('CC(CO)c1cc2c(c(O)c1O)[C@@]13CCCC(C)(C)[C@@H]1C[C@@H]2OC3=O (stereo partly drawn)', 'class 1'),
  ('CC(C)c1cc2c(c(O)c1O)[C@@]13CCCC(C)(C)[C@@H]1[C@@H](O)[C@@H]2OC3=O', 'class 0'),
  ('COc1cc2c(cc1C(C)C)C(=O)C=C1C(C)(C)CCC[C@@]12C', 'class 1'),
  ('CC(C)c1cc2c(c(O)c1O)[C@@]13CCCC(C)(C)[C@@H]1C[C@@H]2OC3', 'class 1'),
  ('CC(C)C1=C[C@@]23CC[C@H]4C(C)(C)CCC[C@]4(CO2)C3=C(O)C1=O', 'class 1'),
  ('CC(C)c1cc(C=O)c2c(c1O)OC(=O)[C@@]21CCCC(C)(C)[C@@H]1C=O', 'class 0');
